- Test system: Escherichia coli
- TEST_NAME: Antimicrobial activity against Escherichia coli DH5[alpha] harboring pBC-CTX-M-15 plasmid by agar dilution method
- Type: functional

- STRUCTURE_NOTATION: "CO[C@@]1(NC(=O)Cc2cccs2)C(=O)N2C(C(=O)O)=C(COC(N)=O)CS[C@@H]21"
  RELATION_OPERATOR: "="
  MIC / µg/mL: 4
- STRUCTURE_NOTATION: "C[C@H]1[C@H](NC(=O)/C(=N\\OC(C)(C)C(=O)O)c2csc(N)n2)C(=O)N1S(=O)(=O)O"
  RELATION_OPERATOR: "="
  MIC / µg/mL: 64
- STRUCTURE_NOTATION: "CO/N=C(\\C(=O)N[C@@H]1C(=O)N2C(C(=O)O)=C(COC(C)=O)CS[C@H]12)c1csc(N)n1"
  RELATION_OPERATOR: ">"
  MIC / µg/mL: 256
- STRUCTURE_NOTATION: "CCN1CCN(C(=O)N[C@@H](C(=O)N[C@@H]2C(=O)N3[C@@H]2SC(C)(C)[C@@H]3C(=O)O)c2ccccc2)C(=O)C1=O"
  RELATION_OPERATOR: ">"
  MIC / µg/mL: 256

---

- Tested on: Escherichia coli
- TEST_NAME: Antimicrobial activity against Escherichia coli K-12 transconjugant harboring blaCTX-M-71 gene by agar dilution method in presence of beta-lactamase inhibitor clavulanic acid
- Type: functional
Overview of recorded log10 MIC for various compounds
OBSERVATION_TYPE: log10 MIC (log10 of the value in µg/mL)

- COMPOUND: "CC(C)(O/N=C(\\C(=O)N[C@@H]1C(=O)N2C(C(=O)[O-])=C(C[n+]3ccccc3)CS[C@H]12)c1csc(N)n1)C(=O)O [CEFTAZIDIME]"
  log10 MIC: -0.60
- COMPOUND: "CO/N=C(\\C(=O)N[C@@H]1C(=O)N2C(C(=O)O)=C(COC(C)=O)CS[C@H]12)c1csc(N)n1 [CEFOTAXIME]"
  log10 MIC: -1.22
- COMPOUND: "CC1(C)S[C@@H]2[C@H](NC(=O)[C@H](N)c3ccc(O)cc3)C(=O)N2[C@H]1C(=O)O [AMOXICILLIN]"
  log10 MIC: 1.81
- COMPOUND: "C[C@@H](O)[C@H]1C(=O)N2C(C(=O)O)=C(S[C@@H]3CN[C@H](C(=O)N(C)C)C3)[C@H](C)[C@H]12 [MEROPENEM]"
  log10 MIC: -1.80
- COMPOUND: "C[C@@H](O)[C@H]1C(=O)N2C(C(=O)O)=C([C@H]3CCCO3)S[C@H]12 [FAROPENEM]"
  log10 MIC: -0.30

---

- Tested on: Escherichia coli
- TEST_NAME: Antimicrobial activity against Escherichia coli DH5[alpha] harboring pBC-CTX-M-71 plasmid by agar dilution method
- Format: functional
Overview of recorded MIC for various compounds
OBSERVATION_TYPE: MIC (µg/mL)

- COMPOUND: "CO/N=C(\\C(=O)N[C@@H]1C(=O)N2C(C(=O)O)=C(COC(C)=O)CS[C@H]12)c1csc(N)n1"
  OBSERVATION_TYPE: "MIC"
  RELATION_OPERATOR: "="
  MEASURED: 16
- COMPOUND: "CO/N=C(\\C(=O)N[C@@H]1C(=O)N2C(C(=O)[O-])=C(C[N+]3(C)CCCC3)CS[C@H]12)c1csc(N)n1 [CEFEPIME]"
  OBSERVATION_TYPE: "MIC"
  RELATION_OPERATOR: "="
  MEASURED: 4
- COMPOUND: "CC1(C)S[C@@H]2[C@H](NC(=O)[C@H](N)c3ccc(O)cc3)C(=O)N2[C@H]1C(=O)O"
  OBSERVATION_TYPE: "MIC"
  RELATION_OPERATOR: ">"
  MEASURED: 512
- COMPOUND: "C[C@@H](O)[C@H]1C(=O)N2C(C(=O)O)=C([C@H]3CCCO3)S[C@H]12"
  OBSERVATION_TYPE: "MIC"
  RELATION_OPERATOR: "="
  MEASURED: 0.5
- COMPOUND: "C[C@@H](O)[C@H]1C(=O)N2C(C(=O)O)=C(S[C@@H]3CN[C@H](C(=O)Nc4cccc(C(=O)O)c4)C3)[C@H](C)[C@H]12"
  OBSERVATION_TYPE: "MIC"
  RELATION_OPERATOR: "="
  MEASURED: 0.016
- COMPOUND: "CCN1CCN(C(=O)N[C@@H](C(=O)N[C@@H]2C(=O)N3[C@@H]2SC(C)(C)[C@@H]3C(=O)O)c2ccccc2)C(=O)C1=O"
  OBSERVATION_TYPE: "MIC"
  RELATION_OPERATOR: "="
  MEASURED: 256
- COMPOUND: "C[C@H]1[C@H](NC(=O)/C(=N\\OC(C)(C)C(=O)O)c2csc(N)n2)C(=O)N1S(=O)(=O)O"
  OBSERVATION_TYPE: "MIC"
  RELATION_OPERATOR: "="
  MEASURED: 8
